What melting point was measured for each of the following?

May I ask what melting point has been recorded for Cc1nnc2ncc(-c3ccccc3)cn12 ?
199 to 200 °C

Give its melting point value. Item: O=C1CC(c2cccc(-n3ccnn3)c2)=Nc2cc(O)c(-c3ccc(F)cc3)cc2N1
> 250 °C

Which melting point value belongs to COC(=O)COc1ccc(C(=O)NNC(=O)c2ccc(C#N)cc2)cc1 ?
220 to 222 °C

Fill in the blank: the reported melting point of CN(CC(=O)C(Cc1ccccc1)NC(=O)c1ccccc1)C(=O)OCc1ccccc1 (centres undefined) is ____.
140 to 141 °C

###

ASSAY ENDPOINT: melting point

State the recorded melting point for this entry: Fc1cccc2c1[nH]c1c2ccc2cc[nH]c21
> 250 °C

What measured melting point goes with Cc1ccccc1C(C)Oc1cc(OCc2ccsc2)ccc1C(=O)CC(=O)C(=O)O (racemic) ?
124 to 126 °C

Given O=C1CCCC(=O)N1c1ccc([N+](=O)[O-])cc1 , state its recorded melting point.
207 to 209 °C

Requested read-out: melting point. Entry: C(=NNc1ccccc1)c1ccccn1
179 °C

Entry C=CCN(NC(=O)c1ccc(Cl)c(S(N)(=O)=O)c1)c1ccccc1 has what melting point?
99 to 101 °C

What value of melting point has been reported for the following compound? CNC(=O)c1ccccc1Nc1nc(Nc2ccc3c(c2)NCCNC3=O)ncc1Cl
232 to 237 °C

// melting point lookup, key: CC(=NC#N)N[C@@H]1c2cc(C#N)ccc2OC(C)(C)[C@H]1O (relative stereo)
236 to 238 °C

Fill blank: measured melting point of the compound CC(=O)c1c(C)[nH]c(-c2ccccc2)c1N(C)C is ____.
153 to 155 °C

Please give the measured melting point for this compound: Cc1ccc(C(=O)N(C)C)cc1-c1nc(NCCNC(C)C)nc2c1CNC(=O)N2c1c(F)cccc1F
130 to 133 °C

Quick check: melting point of NC(=O)c1nc(-c2cccc(O)c2)nc2c1[nH]c(=O)n2-c1cccc2c1CCCC2 ?
> 250 °C

Endpoint output: melting point of Cn1cccc1C(=O)Nc1ccc(-n2nc(C(F)(F)F)cc2C(F)(F)F)cc1 . Value?
148 to 149 °C

Need melting point, item Cc1cc(C(=O)c2sc(Nc3ccc(N4CCN(C)CC4)cc3)nc2N)c(C)s1
205 to 206 °C

Recorded melting point of O=C(O)c1ccc(-c2nc(-c3cc(C(F)(F)F)cc(C(F)(F)F)c3)co2)cc1 , please.
277 to 279 °C

Give the measured melting point of Nc1ccc(C(O)c2ccc(Cl)cn2)cc1 (stereo unspecified) .
122 to 123 °C

May I ask what melting point has been recorded for Cc1ccc(Cn2c3c(c4cc(-c5cccc(C)c5)ccc42)C(=O)C(=O)OC3)cc1 ?
216 to 217 °C

What value of melting point has been reported for the following compound? O=c1nc(-c2ccccn2)sc2cccc(F)c12
256 to 257 °C

###

Would you kindly list melting point for each of these compounds?

Param item = CCCn1c(=O)c2[nH]c(-c3cc(C)n(CC(=O)Nc4ccc(C)c(C)c4)n3)nc2n(CCC)c1=O ; retrieve measured melting point.
261 to 265 °C

Look at this compound and give its reported melting point. CC(C)c1ccc(S(=O)(=O)O)cc1
35.2 to 36.7 °C

Query (compound): COc1ccc(C2Cc3ccccc3-c3nc(N)c4ccccc4c32)c(OC)c1OC (stereo not drawn) ; field requested: melting point
283 °C

# input compound: CS(=O)(=O)c1ccc(-c2[nH]c3ccc(Cl)cc3c2-c2ccccc2)cc1 ; wanted: its melting point
281 to 283 °C

Request the reported melting point associated with COc1cc(OC)nc(Sc2c([N+](=O)[O-])nc(C)n2C)n1
228 to 230 °C

Query: melting point; subject: CC1(C)CCC(C)(C)c2cc(CC(=O)Oc3ccc(C(=O)O)cc3)ccc21
142 to 143 °C

So what does the record say about melting point for CNc1nnc(-c2ccc3ncn(-c4ccc(OC(F)(F)F)cc4)c3c2)o1 ?
183 to 184 °C

# get_value(readout='melting point', item= N#CC(CC(=O)CCl)(c1ccccc1)c1ccccc1 )
102 to 104 °C

Look up melting point: CC(C)(C)OC(=O)/C=C/c1ccc(C(=C2CCCCCCC2)c2ccc(O)cc2)cc1
171 to 172 °C

For CC(=O)NCCCCCCOc1ccccc1C(=O)Nc1ccc(C(=O)N2CCCCc3ccccc32)cc1 , what is its reported melting point?
171 to 172 °C

Look at this compound and give its reported melting point. CS(=O)(=O)c1ccc(Oc2ccc3[nH]c(C4=NCC(CC(=O)O)S4)cc3c2)cn1 (stereo not drawn)
205 to 208 °C

State the recorded melting point for this entry: COc1cccc2c1C(=O)c1ccccc1C2(CC(=O)O)CC(=O)O
239 to 243 °C

Please give the measured melting point for this compound: O=C(Nc1cc(C(F)(F)F)on1)c1ccccc1
152 to 154 °C

If you can, please state the reported melting point value of Cc1nc2c(Cl)cc(F)c([N+](=O)[O-])c2s1 .
130 to 132 °C

Could you tell me which melting point is on file for NS(=O)(=O)c1cccc(-c2cccc(-c3nc(-c4ccc(Cl)cc4Cl)cc(C(F)(F)F)n3)c2)c1 ?
202 °C

// returns reported melting point for input Nc1cccn2c(Cl)cnc12
126 to 127 °C

// returns reported melting point for input O=C1CCC(N2Cc3c(OCc4ccc(CN5CCCCC5)cc4)cccc3C2=O)C(=O)N1 (stereo not drawn)
186 to 188 °C

Need melting point of COC(=O)c1c(S(N)(=O)=O)ccn1C , thanks.
105 to 107 °C

Find the recorded melting point belonging to Cn1c(COc2ccc(CC3SC(=O)NC3=O)cc2)nc2ccc(Oc3ccc(NC(=O)c4ccccc4)cc3)cc21 (stereo not drawn) and report it.
200 to 204 °C

melting point for COc1cccc2c1c1nc3ccccc3cc1n2C(C)=O ?
125 to 126 °C

Could you tell me which melting point is on file for CC(=O)OC(C=C(C)C=CC=C(C)C=O)OC(C)=O ?
99.5 °C

# input compound: O=C(c1ccccn1)c1cnn2c(-c3cccc(C(F)(F)F)c3)ccnc12 ; wanted: its melting point
166 to 167 °C

// query melting point value for entry CCc1c(NC(=O)c2cc3c(s2)CCCC3)cccc1-c1cc(N)c(=O)n(C)c1
210 to 211 °C

Give the measured melting point of O=C(O)CCCC/C=C(/c1ccc(-c2nc(C(=O)NCCCCC3CCCCC3)co2)cc1)c1cccnc1 .
52 to 56 °C

Can you share its melting point? I mean this compound: O=S(=O)(c1ccc(Oc2ccccc2)cc1)c1ccc(Oc2ccccc2)cc1
142 to 143 °C

What does the data say about its melting point? Entry: OCc1ccc(Cc2ccccc2CO)cc1
102 °C

For the compound shown here, CC(C)OC(=O)c1cc(-c2nn(C)c(C(F)(F)F)c2C=O)c(F)cc1Cl , give the reported melting point.
90 °C

Quick one: melting point of CC(C)(C)c1cc(CC2SCNC2=O)ccc1O (stereo not drawn) ?
65 to 70 °C

Look at this compound and give its reported melting point. CCCCCCCCCCCCc1ccc(S(=O)(=O)Nc2nnc(C(C)(C)C)s2)cc1
117 to 118 °C

Find the recorded melting point belonging to Cc1cc(C)c(C(CO)c2ccc(Br)cc2)c(O)c1C (stereo not drawn) and report it.
114 to 115 °C

// returns reported melting point for input CCCc1nc(SC)c(C(O)CO)n1Cc1ccc(-c2ccccc2S(=O)(=O)NC(=O)NCc2ccccc2)cc1 (stereo not drawn)
140 °C

Request the reported melting point associated with CNS(=O)(=O)Cc1ccc2[nH]cc(CCCN3C(=O)c4ccccc4C3=O)c2c1
58 to 66 °C

If you can, please state the reported melting point value of O=C1CC(=C[N+](=O)[O-])Nc2ccccc2N1c1ccccc1 .
231 to 234 °C

Value lookup for melting point; key = O=S(=O)(c1cccs1)N(c1cccc2cc(C3=NCC(CN4CCOCC4)S3)[nH]c12)C(F)F (stereo not drawn)
185 to 186 °C

Need melting point, item CC(C)Nn1nnnc1S
92 to 95 °C

// query melting point value for entry COC(=O)c1cc(CBr)cc(CBr)c1
64 to 70 °C

What does the record list as melting point for COc1ccnc(CSc2nc3cc4c(cc3[nH]2)OCO4)c1OC ?
155 to 157 °C

Quick check: melting point of CCCC(=O)c1cnc2c(OCCCN(C)C)cccc2c1Nc1ccc(F)cc1C ?
99 to 100 °C

###

I'd appreciate it if you could supply melting point values for the items below.

Given Cc1nc(-c2ccc(-c3ccco3)cc2)c(-c2ccc(S(C)(=O)=O)cc2)o1 , state its recorded melting point.
143 to 144 °C

I would be grateful if you could share the reported melting point for C#Cc1ccc2c(c1)C(C)(C)CCS2=O (stereo unspecified) .
105 to 107 °C

Could you tell me which melting point is on file for CC(C)(C)c1ccc(C(O)CCCN2CCC(OC(c3ccccc3)c3ccccc3)CC2)cc1 (stereo unspecified) ?
129 to 131 °C

Look at this molecule and give its reported melting point. c1ccc(CSc2ccccc2Cn2cncn2)cc1
65 to 68 °C

Given the molecule OC1CSC(Oc2cnccc2C(F)(F)F)C(O)C1O (stereo unspecified) , what is its reported melting point?
191 °C

Fill in: melting point of NC(=O)c1ccc2c(c1)S(=O)(=O)c1ccccc1C2=O is ___
282 to 283 °C

Recorded melting point for Cc1c(-c2cnc(C(N)=O)c3[nH]c4cc(NC5CCOC5)ccc4c23)cccc1N1Cc2ccc(Cl)cc2C1=O (stereo unspecified) , please?
115 °C

# get_value(readout='melting point', item= N#Cc1ccc2c(c1)S(=O)(=O)c1ccccc1C2=O )
282 to 283 °C

Requested field: melting point. Item: O=Cc1ccc(-c2nc(Oc3ccccc3)cc(Oc3ccccc3)n2)cc1
143 to 145 °C

What value of melting point has been recorded for this entry: O=C(Nc1ccc2cc(CN3CCCC3)cnc2c1)c1ccc(-c2ccccc2)cc1F
166 °C

// query melting point value for entry CCCN1C(=O)COc2ccc(N3C(=O)C(C)=C(C)C3=O)cc21
147 to 149 °C

Return reported melting point; argument: Cc1cc(CCl)nc(Nc2ccccc2)n1
100 to 101 °C

What does the data say about its melting point? Entry: CCN(CC)CC1CCCCN1CC(=O)N1c2nc(C)cc(C)c2NC(=O)c2cccc(C)c21 (stereo unspecified)
213 to 215 °C

# get_value(readout='melting point', item= NC(=O)c1cc2ccccc2cc1NC(=S)NC(=O)c1ccccc1 )
220 to 223 °C

So what's the measured melting point for this one? Cc1ccc(S(=O)(=O)n2c(CCCC(=O)O)cc3nc(Cl)ccc32)c2ccccc12
199 to 204 °C

Fill in the blank: the reported melting point of CCCCCCc1ccc2c(c1)c1cc(CCCCCC)ccc1n2CCN is ____.
56 °C

Quick one: melting point for CCOCc1nc2c(N)nc(C)c(C)c2n1CCNC(=O)C(C)C ?
172 to 174 °C

Look at this molecule and give its reported melting point. CC(=O)NCCc1ccc(CCC(=O)O)cc1
132 to 133 °C

Please report the recorded melting point for CCOc1ccc(NC(=O)NCCc2ccccn2)cc1 .
163 to 164 °C

Suppose we examine the molecule CCOc1nn(-c2cc(C(F)(F)F)ccn2)cc1CCCO ; what melting point value has been reported?
73 to 74 °C

Name the recorded melting point for COC(=O)c1cccc(-c2nc(COc3ccc(COc4nn(-c5ccccc5)cc4C=O)cc3)c(C)o2)c1 .
161 to 162 °C

Which value of melting point has been reported for Cn1c(=O)c(NC(=O)Nc2ccc(F)cc2F)c(-c2ccccc2)c2cc(Cl)ccc21 in the records?
204 to 206 °C

State the recorded melting point for this entry: Cc1oc(-c2ccccc2)nc1COc1ccc(Cn2cc(C(=O)O)c(C(C)C)n2)cc1
194 to 195 °C

Using the record for O=C1C2=CSCCN2C(=O)N1c1ccc(Cl)cc1F , report its melting point.
118 to 120 °C

Given the molecule O=C(O)Cn1c(=O)n(Cc2ccccc2)c2ccccc21 , what is its reported melting point?
200 to 202 °C

Fill in the blank: the reported melting point of CC#CCOc1cc(Oc2ccc(F)cc2)ncn1 is ____.
116 °C

Please report the recorded melting point for Oc1ccc2ccc(OCCN3CCC(Cc4ccccc4)CC3)cc2c1 .
159 to 160 °C

I have this molecule here, COC(=O)c1ccc2[nH]c(C#N)c(-c3ccccc3)c2c1 , and I need its recorded melting point.
250 to 253 °C

Consider the molecule CCOC(=O)c1c(Cl)nc2cc3c(cc2c1CCl)OCCO3 and give its measured melting point.
> 260 °C

Tell me the measured melting point of O=C(c1cccs1)c1cnn2c(-c3csc([N+](=O)[O-])c3)ccnc12 , please.
225 to 226 °C

Looking for the measured melting point of COC(=O)c1cc(-n2cnc(Br)c2)c(C(F)(F)F)cc1N , can you help?
163 to 165 °C

Reference source for all entries: a melting point compilation (Tetko et al.; mined from patent text by program, amines drawn as free bases though some values may be those of a salt)
